assay.system: canine CD3 on canine T cells (canine PBMC) (canine, UniProt P27597 22-202)
Sequence (P27597 22-202 limits assumed, chain 1 of 3): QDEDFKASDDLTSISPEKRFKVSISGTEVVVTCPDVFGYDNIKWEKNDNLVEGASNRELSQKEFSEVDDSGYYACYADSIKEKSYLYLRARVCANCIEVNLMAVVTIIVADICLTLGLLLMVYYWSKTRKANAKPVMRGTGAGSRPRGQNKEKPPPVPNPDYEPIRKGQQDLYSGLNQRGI
Sequence (chain, as listed by the source limits assumed, chain 2 of 3): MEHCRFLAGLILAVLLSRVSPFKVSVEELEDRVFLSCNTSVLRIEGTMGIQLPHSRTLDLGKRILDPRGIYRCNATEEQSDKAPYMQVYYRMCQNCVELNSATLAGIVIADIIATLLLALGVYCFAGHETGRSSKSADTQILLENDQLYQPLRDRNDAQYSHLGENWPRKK
Sequence (chain, as listed by the source limits assumed, chain 3 of 3): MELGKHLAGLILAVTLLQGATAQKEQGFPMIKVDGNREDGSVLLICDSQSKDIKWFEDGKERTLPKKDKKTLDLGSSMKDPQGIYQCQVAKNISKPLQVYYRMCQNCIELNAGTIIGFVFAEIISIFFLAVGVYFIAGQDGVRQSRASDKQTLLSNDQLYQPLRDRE
assay.protocol: cell-based or functional assay
observed.property: IFNy Concentration pg/ml, Day 9, IS (pg/mL)
State the answer as a number, implicitly in pg/mL.

Illustrative cases are given below, each with its answer.
{"binder": "PMX198 (monospecific anti-canine CD3, canine IgG-B effector function deficient Fc) (antibody, V domains shown) VH: EFTLQESGPGLVKPSQTLSLTCIVSGGSVTSSYYWNWIRQRPGRGLEWMGYWTGSTNYNPAFQGRISITPDTAKNQFSLQLSSMTTEDTAVYYCAREGGSSLQAFGNWGQGTLVTVSS VL: SYVLTQLPSKNVTLKQPAHITCGGDNIGRKSVHWYQQKLGQAPILIIYYDSSRPTGIPERFSGANSGNTATLTISGALAEDEADYYCQVWDSSAKASVFGGGTHLTVL", "IFNy Concentration pg/ml, Day 9, IS, pg/mL": 191}
{"binder": "PMX177 (monospecific anti-canine CD3, canine IgG-B effector function deficient Fc) (antibody, V domains shown) VH: EVTLQESGPGLVKPSQTLSLTCVVSGGSVTSSFYWNWIRQRPGRGLEWMGYWTGSTNYNPAFQGRISITADTAKNQFSLHLGSMTTDDTAMYYCAREEGSWGRVYFDYWGQGTLVTVSS VL: SYVLTQLPSKNVTLKQPAHITCGGDNIGSKSVHWYQQKLGQAPVLIIYYDSSRPTGIPERFSGANSGNTATLTISGALAEDEADYYCQVWDSSTKTWVFGEGTQLTVL", "IFNy Concentration pg/ml, Day 9, IS, pg/mL": 763}
{"binder": "PMX175 (monospecific anti-canine CD3, canine IgG-B effector function deficient Fc) (antibody, V domains shown) VH: ELTLQESGPGLVKPSQTLSLTCVVSGGSVTSTYYWNWIRQRPGRGLEWMGYWTGTTNYNPAFQGRISITADTAKNQFSLQLSSMTTEDTAVYYCAREDLVTVGSGAFNYWGQGTLVTVSS VL: SYVLTQLPSKNVTLKQPAHITCGGDNIGSKSVHWYQQKLGQAPVLIIYYDSSRPTGIPERFSGANSGNTATLTISGALAEDEADYYCQVWDSSATWVFGEGTQLTVL", "IFNy Concentration pg/ml, Day 9, IS, pg/mL": 233}
{"binder": "PMX179 (monospecific anti-canine CD3, canine IgG-B effector function deficient Fc) (antibody, V domains shown) VH: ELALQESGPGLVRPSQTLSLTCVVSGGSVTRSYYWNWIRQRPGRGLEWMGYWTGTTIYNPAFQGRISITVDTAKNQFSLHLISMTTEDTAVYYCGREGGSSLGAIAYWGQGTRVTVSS VL: SYVLTQLPSKNVTLKQPAHITCGGDNIGSKSVHWYQQKLGQAPVLIIYYDSSRPTGIPERFSGANSGNTATLTISGALAEDEADYYCQVWDSSAKAAVFGGGTHLTVL", "IFNy Concentration pg/ml, Day 9, IS, pg/mL": 162}

Sample PMX180 (monospecific anti-canine CD3, canine IgG-B effector function deficient Fc) (antibody, V domains shown) VH: ELTLQESGPGLVKPSQTLSLTCVVSGGSVTSNYYWNWIRQRPGRGLEWMGYWTGSTNYNPAFQGRISITADTAKKQFSLQLRSMTIEDTAVYYCARRGIPIFFDYWGQGTLVTVSS VL: SYVLTQLPSKNVTLKQPAHITCGGDNIGSKSVHWYQQKLGQAPVLIIYYDSSRPTGIPERFSGANSGNTATLTISGALAEDEADYYCQVWDSSASVFGGGTHLTVL ; IFNy Concentration pg/ml, Day 9, IS observed: 318

Sample PMX195 (monospecific anti-canine CD3, canine IgG-B effector function deficient Fc) (antibody, V domains shown) VH: EVQLVESGGDLVKPAGSLRLSCMASGFTFSSYSMSWVRQAPEKGLQLVAGINGDGSTTYYTDAVKGRFTISRDNAKNTVYLQMNNLRVEDSAMYYCAKGAGTGDYWGQGTLVTVSS VL: SYELTQPPSLNVTLRETAHITCGGDRIGSRYVQWIQQNPGQAPVVVIYKDSNRPTGIPERFSGANSGNTATLTISGALAEDEADYYCQVGDSGNWVFGGGTQLTVL ; IFNy Concentration pg/ml, Day 9, IS observed: 208

Sample PMX181 (monospecific anti-canine CD3, canine IgG-B effector function deficient Fc) (antibody, V domains shown) VH: ELTLQESGPGLVKPSQTLSLTCIVSGGSVTNNYYWTWIRQRPGRGLEWMGYWTGFTNYNPAFQGRISIIANTAKKQLSLQLSSLTTEDTAVYYCARRAIPTYFDYWGQGTLVTVSS VL: SYVLTQLPSKNVTLKQPAHITCGGDNIGSRSVHWYQQKLGQAPVLIIYYDSSRPTGIPERFSGANSGNTATLTISGALAEDEADYYCQVWDSSASVFGGGTHLTVL ; IFNy Concentration pg/ml, Day 9, IS observed: 118

Sample PMX194 (monospecific anti-canine CD3, canine IgG-B effector function deficient Fc) (antibody, V domains shown) VH: EVQLVESGGDLVKPGGSLRLSCVASGFTFSNYHMSWVRQAPGKGLQWVAYSNSGRMSTDYADAVKGRFTISRDNAKNTLYLQMNSLRPEDTAVYYCATVIYGLFDYWGQGTLVTVSS VL: DIVMTQTPLSLSVSPGEPASISCKASQSLLYSNGNTYLYWFRQKPGQSPQRLIYKVSKRDSGVPDRFSGSGSGTDFTLRIRRVEADDAGVYYCGQGTQDPYTFSQGTKLEIK ; IFNy Concentration pg/ml, Day 9, IS observed: 170

Sample PMX166 (monospecific anti-canine CD3, canine IgG-B effector function deficient Fc) (antibody, V domains shown) VH: ELTLQESGPGLVKPSQTLSLTCVVSGGSVTSSYFWNWIRQRPGRGLEWMGYWTGSTIYSPAFQGRISITPDTAKNQFSLQLSSMTTEDTAVYYCSREGGSTLGAFAYWGQGTLVTVSS VL: SYVLTQLPSKNVTLKQPAHITCGGDNIGSKSVHWYQQKLGQAPVLIIYYDSSRPTGIPERFSGANSGNTATLTISGALAEDEADYYCQVWDSSAKASVFGGGTHLTVL ; IFNy Concentration pg/ml, Day 9, IS observed: 112

Sample PMX159 (monospecific anti-canine CD3, canine IgG-B effector function deficient Fc) (antibody, V domains shown) VH: ELTLQESGPGLVKPSQTLSLTCVVSGGSVTRSYYWNWIRQRPGRGLEWMGYWTGSTIYNPTFQGRISITADTAKSQFSLQLRSMTTEDTAMYFCAREGGKSLGAFAYWGQGTLVTVSS VL: SYVLTQLPSKNVTLKQPAHITCGGDKIGSKNVHWYQQKLGQAPVMIIYYDSSRPTGIPERFSGANSGNTATLTISGALAEDEADYYCQVWDSSAKAAVFGGGTHLTVL ; IFNy Concentration pg/ml, Day 9, IS observed: 262

Entry source: patent US20240209086A1
